- Tested on: SNB-19 CNS
- MEASUREMENT NOTES: NCI-60 one-dose screen, 48 h (100 = growth as untreated, 0 = no growth, -100 = all killed)
- ASSAY CONDITIONS: 10 µM unless noted
Compounds without any hit were thinned out: in the full panel of roughly 83,000, 20% have a hit.
Classification by growth | ranges: bin A (below 50%), bin B (50% to below 90%), bin C (90% or more)

[
  {
    "COMPOUND": "C[C@H]1[C@@H]2[C@H]3CC[C@@H]4[C@@]5(C)Cc6c([nH]c7ccccc67)C(C)(C)[C@@H]5CC[C@@]4(C)[C@]3(C)CC[C@]23CO[C@]1(C)[C@@H](C(=O)/C=C/c1ccccn1)C3",
    "CLASSIFICATION": "bin B"
  }
]

Each compound maps to one class by growth. Which class for O=[N+]([O-])c1cccc(/C=N\Nc2ccccc2)c1 ?
bin C

Place this compound in its band: Cn1cc(-c2nc(-c3c[nH]c4ncccc34)cs2)c2cc(F)ccc21
bin B

Hey, which category is OCC1OC(n2cnc3c(Cl)ncnc32)CC1O (centres undefined) in, do you know?
bin C

Which class is correct for the following compound? Cc1cc(N(CCCNc2ccnc3cc(Cl)ccc23)Cc2ccco2)nc(N2CCN(C)CC2)n1
bin B
